- study.system: Cyclooxygenase (Rattus norvegicus) (UniProt P35355+Q63921)
- assay.overview: Inhibition of Prostaglandin G/H synthase in rat polymorphonuclear leukocytes
- Type: cell-based
- Parameters: concentration or dose not given beside the values
- conditions.used: concentration not given here
property.measured: inhibition (%)
Lab book: enter the figure in %, no units written.

Consider the compound CCC(Cc1ccccc1)N(O)C(=O)Cc1ccc(OCc2ccccc2)cc1 (stereo unspecified) . State its measured inhibition.
44

Consider the compound "O=C(CCCc1ccccc1)N(O)Cc1ccccc1" . State its measured inhibition.
18

Consider the compound CC(C)Cc1ccc(C(C)C(=O)N(Cc2ccccc2)OCc2ccccc2)cc1 (stereo unspecified) . State its measured inhibition.
39

---

Hi there, I'd appreciate the recorded inhibition for every entry that follows.
- study.system: Cyclooxygenase (Rattus norvegicus) (UniProt P35355+Q63921)
- assay.overview: In vitro inhibitory activity against rat polymorphonuclear leukocyte Prostaglandin G/H synthase at 100 uM
- Type: protein assay
Lab book: enter the figure in %, no units written.

Consider the compound CC(C)Cc1ccc(C(C)C(=O)N(O)Cc2ccccc2)cc1 (stereo unspecified) . State its measured inhibition.
20

Consider the compound "O=C(CCOc1ccccc1)N(O)CCc1ccccc1" . State its measured inhibition.
18

Consider the compound "CN(O)C(=O)Cc1cccc(OCc2ccc3ccccc3n2)c1" . State its measured inhibition.
30

Consider the compound "O=C(CCc1ccccc1)N(O)CCCc1ccccc1" . State its measured inhibition.
15

Consider the compound "O=C(COc1ccccc1)N(O)CCc1ccccc1" . State its measured inhibition.
65

---

- study.system: Arachidonate 12-lipoxygenase (Rattus norvegicus)
- assay.overview: In vitro inhibitory activity against rat platelet 12-lipoxygenase at 100 uM
property.measured: inhibition (%)
Lab book: enter the figure in %, no units written.

Consider the molecule "O=C(O)CCCN(O)C(=O)CCCc1ccccc1" . State its measured inhibition.
15

Consider the molecule "O=C(Cc1ccc(OCc2ccccc2)cc1)N(O)Cc1ccccc1" . State its measured inhibition.
47

---

A short record of IC50 observed with Polyunsaturated fatty acid 5-lipoxygenase (Homo sapiens) follows.
Sequence (P09917 whole entry): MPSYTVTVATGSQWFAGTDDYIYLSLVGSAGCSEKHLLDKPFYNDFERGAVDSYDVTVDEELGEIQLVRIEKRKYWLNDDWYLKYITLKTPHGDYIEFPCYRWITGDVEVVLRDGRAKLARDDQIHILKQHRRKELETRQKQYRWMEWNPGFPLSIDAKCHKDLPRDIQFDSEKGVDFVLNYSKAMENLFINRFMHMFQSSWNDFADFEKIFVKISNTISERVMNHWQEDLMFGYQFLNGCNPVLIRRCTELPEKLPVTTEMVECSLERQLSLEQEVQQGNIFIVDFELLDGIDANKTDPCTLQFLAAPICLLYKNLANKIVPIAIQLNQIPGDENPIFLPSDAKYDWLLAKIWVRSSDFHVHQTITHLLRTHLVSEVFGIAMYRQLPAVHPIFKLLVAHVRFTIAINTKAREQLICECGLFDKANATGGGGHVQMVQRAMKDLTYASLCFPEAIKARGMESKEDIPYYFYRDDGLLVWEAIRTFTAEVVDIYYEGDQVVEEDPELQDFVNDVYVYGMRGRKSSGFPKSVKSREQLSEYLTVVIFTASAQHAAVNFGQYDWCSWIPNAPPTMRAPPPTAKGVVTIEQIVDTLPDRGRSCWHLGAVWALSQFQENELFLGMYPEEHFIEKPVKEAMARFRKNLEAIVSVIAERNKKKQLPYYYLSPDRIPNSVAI
Hey, just the number and the unit after it is fine.

Provide Polyunsaturated fatty acid 5-lipoxygenase (Homo sapiens) IC50 reading for CC(C(=O)N(O)CCc1ccccc1)c1cccc(OCc2ccccc2)c1 (stereo unspecified) .
100 nM

Provide Polyunsaturated fatty acid 5-lipoxygenase (Homo sapiens) IC50 reading for "CN(O)C(=O)Cc1cccc(OCc2ccc3ccccc3n2)c1" .
1000 nM

Provide Polyunsaturated fatty acid 5-lipoxygenase (Homo sapiens) IC50 reading for CC(C)Cc1ccc(C(C)C(=O)N(O)Cc2ccccc2)cc1 (stereo unspecified) .
2000 nM

Provide Polyunsaturated fatty acid 5-lipoxygenase (Homo sapiens) IC50 reading for "O=C(CCCc1ccccc1)N(O)CCc1ccccc1" .
180 nM

Provide Polyunsaturated fatty acid 5-lipoxygenase (Homo sapiens) IC50 reading for "O=C(Cc1ccc(OCc2ccccc2)cc1)N(O)Cc1ccccc1" .
120 nM

Provide Polyunsaturated fatty acid 5-lipoxygenase (Homo sapiens) IC50 reading for "COc1ccc(CC(=O)N(O)CCc2ccccc2)cc1" .
2500 nM

Provide Polyunsaturated fatty acid 5-lipoxygenase (Homo sapiens) IC50 reading for "O=C(CCCc1ccccc1)N(O)Cc1ccccc1" .
130 nM

Provide Polyunsaturated fatty acid 5-lipoxygenase (Homo sapiens) IC50 reading for "CCCN(O)C(=O)Cc1ccc(OCc2ccccc2)cc1" .
160 nM

Provide Polyunsaturated fatty acid 5-lipoxygenase (Homo sapiens) IC50 reading for "O=C(CCc1ccccc1)N(O)CCCc1ccccc1" .
100 nM

Provide Polyunsaturated fatty acid 5-lipoxygenase (Homo sapiens) IC50 reading for "O=C(CCCCc1ccccc1)N(O)Cc1ccccc1" .
150 nM

Provide Polyunsaturated fatty acid 5-lipoxygenase (Homo sapiens) IC50 reading for CCC(Cc1ccccc1)N(O)C(=O)Cc1ccc(OCc2ccccc2)cc1 (stereo unspecified) .
3000 nM
